Entries annotated with measured IC50
- assay system: UniProtKB P14902
- Sequence (P14902 whole entry): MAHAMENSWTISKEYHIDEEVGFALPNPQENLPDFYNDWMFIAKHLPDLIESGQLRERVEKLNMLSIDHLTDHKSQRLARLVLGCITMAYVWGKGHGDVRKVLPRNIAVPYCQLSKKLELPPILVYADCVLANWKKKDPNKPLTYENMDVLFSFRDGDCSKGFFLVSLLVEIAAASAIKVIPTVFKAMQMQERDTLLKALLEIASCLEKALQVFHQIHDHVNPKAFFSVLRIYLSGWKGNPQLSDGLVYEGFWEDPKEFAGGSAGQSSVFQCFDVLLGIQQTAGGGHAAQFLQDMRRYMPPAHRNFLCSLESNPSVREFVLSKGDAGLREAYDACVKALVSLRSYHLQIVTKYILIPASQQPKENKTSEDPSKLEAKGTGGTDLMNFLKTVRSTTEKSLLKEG
- assay info: Determination of biochemical activity of IDO1 enzyme (absorbance at 320 nm)
- stated conditions: room temperature, 3 hours

COc1ccc(NC(=N)Nc2nonc2/C(=N/O)Nc2ccc(F)c(Br)c2)c(F)c1 [Embodiment 144]	0.1 to 1 µM
O=C(Nc1nonc1/C(=N/O)Nc1ccc(F)c(Br)c1)Nc1cccc2[nH]ccc12 [Embodiment 34]	0.1 to 1 µM
COc1ccc(NC(=O)Nc2nonc2/C(=N/O)Nc2ccc(F)cc2)cc1 [Embodiment 54]	0.1 to 1 µM

Query: // returns reported IC50 for input OCCCNC(=S)Nc1nonc1/C(=N/O)Nc1ccc(F)c(Br)c1 [Embodiment 127]
Result: < 0.001 µM

Query: # input compound: O=C(Nc1nonc1/C(=N/O)Nc1ccc(F)c(Br)c1)NC1CCCCCC1 [Embodiment 33] ; wanted: its IC50
Result: 0.1 to 1 µM

Query: Look at this compound and give its reported IC50. COc1cccc(NC(=O)Nc2conc2/C(=N/O)Nc2ccc(F)c(Br)c2)c1 [Embodiment 101]
Result: 0.1 to 1 µM

Query: Param item = O/N=C(\Nc1ccc(F)c(Br)c1)c1nonc1NC(=S)Nc1ccc(C(F)(F)F)cc1 [Embodiment 119] ; retrieve measured IC50.
Result: > 1 µM

Query: Which IC50 reading was recorded for the compound O=C(Nc1cocc1/C(=N/O)Nc1ccc(F)c(Br)c1)Nc1c[nH]c2ccccc12 [Embodiment 74] ?
Result: 0.1 to 1 µM
